Cited source: ChEMBL document CHEMBL1201862

System: DNA dC->dU-editing enzyme APOBEC-3A (Homo sapiens)
Sequence (P31941 whole entry): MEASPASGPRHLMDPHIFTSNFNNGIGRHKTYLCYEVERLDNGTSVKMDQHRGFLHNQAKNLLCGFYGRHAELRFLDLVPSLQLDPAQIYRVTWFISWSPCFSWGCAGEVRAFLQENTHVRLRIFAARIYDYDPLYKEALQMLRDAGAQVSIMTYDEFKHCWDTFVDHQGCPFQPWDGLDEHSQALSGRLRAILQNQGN
Experimental Details: Dose Response confirmation of small molecule APOBEC3A DNA Deaminase Inhibitors via a fluorescence-based single-stranded DNA deaminase assay. [Related pubchem assays (depositor defined):AID493011, AID493024]
Format: functional
Calls of active or inactive are those of the source.
Attribute Measured: IC50

CCc1cccc(NC(=O)C[n+]2c3n(c4ccc(C(F)(F)F)cc42)CCCCC3)c1 = 2.69 µM (active)

Answer for every listed entry: what is its IC50? The entries follow.
1. COc1ccc(C(CC(=O)N2CCOCC2)c2c(OC)cc(OC)c3c(-c4ccccc4)cc(=O)oc23)cc1 (centres undefined)
2. C=CCNC1=N[C@@H](c2ccccc2)C(C(=O)OC)=C(C)N1CC
3. CCN(CC)C(=O)c1ncn(C)c1C(=O)N(CC)CC

[out]
1: 17 µM (active); 2: 5.62 µM (active); 3: 3.51 µM (active)

###

System: Peroxisome proliferator-activated receptor gamma/Nuclear receptor coactivator 2 (Homo sapiens, UniProt P37231)
Experimental Details: TR-FRET dose response biochemical High Throughput Screening assay for agonists of the steroid receptor coactivator 2 (SRC-2) recruitment by the peroxisome proliferator-activated receptor gamma (PPAR gamma): non-selective agonists. [Related pubchem assays: 1297, 1032 ]
Assay type: functional
Activity calls are given as the source filed them.
Attribute Measured: EC50

Check out these entries, answers already filled in.
Cc1ccc(S(=O)(=O)NCC(=O)OCC(=O)c2ccc(Br)s2)cc1 = 8.2 µM (active)
CN=C(S)N1N=C(c2ccccc2)CC1c1ccc(Br)cc1 (centres undefined) = 27.5 µM (not active)
COc1cccc(C2C=C(c3ccc(Br)s3)Nc3ncnn32)c1OC (centres undefined) = 9.72 µM (active)

Lab note: next molecule to report on.
[in] Give EC50 for COc1ccc(C2C(C(=O)c3cccs3)=C(O)C(=O)N2c2nncs2)cc1 (centres undefined)
[out] > 79.4 µM (not active)

###

Exercise: state measured IC50 for each of the molecules provided.
System: Coagulation factor XII (Homo sapiens, UniProt P00748);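 also: activated factor XIIa alpha cleaving a fluorogenic AMC peptide substrate; inhibitor potency from loss of enzyme activity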
Sequence (P00748 20-372 limits assumed): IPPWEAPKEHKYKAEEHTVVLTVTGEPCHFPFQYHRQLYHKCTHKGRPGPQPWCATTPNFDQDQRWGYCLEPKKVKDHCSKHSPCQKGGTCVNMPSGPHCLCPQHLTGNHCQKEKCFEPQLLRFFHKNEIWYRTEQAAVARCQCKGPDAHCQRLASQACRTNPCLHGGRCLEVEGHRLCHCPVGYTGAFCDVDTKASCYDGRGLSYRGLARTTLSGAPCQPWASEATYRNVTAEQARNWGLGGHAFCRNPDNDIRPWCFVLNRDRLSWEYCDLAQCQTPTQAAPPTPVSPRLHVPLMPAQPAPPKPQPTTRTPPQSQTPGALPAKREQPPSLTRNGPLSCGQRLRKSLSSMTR
Sequence (P00748 373-615 limits assumed): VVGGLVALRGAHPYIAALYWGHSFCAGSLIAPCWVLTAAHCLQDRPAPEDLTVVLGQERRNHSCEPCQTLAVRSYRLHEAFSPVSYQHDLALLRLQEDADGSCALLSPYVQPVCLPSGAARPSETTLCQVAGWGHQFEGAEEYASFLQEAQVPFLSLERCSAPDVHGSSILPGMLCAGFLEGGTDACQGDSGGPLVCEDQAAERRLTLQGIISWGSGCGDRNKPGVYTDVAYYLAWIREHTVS
Assay type: functional
Calls of active or inactive are those of the source.

Check out these entries, answers already filled in.
CN(C)c1ccc(C(=S)N2CCN(c3ccc([N+](=O)[O-])cc3)CC2)cc1 = > 50 µM (inactive)
Cc1onc(-c2c(F)cccc2Cl)c1-c1nnc(-c2ccc(C(F)(F)F)cc2)o1 = > 50 µM (inactive)
Cc1ccc(-c2nc(CS(=O)(=O)CC(=O)N3CCc4ccccc4C3)c(C)o2)cc1 = > 50 µM (inactive)
COCCN(C(=O)C1CC1)c1nnc(-c2ccc(C)cc2)s1 = > 50 µM (inactive)

[in] Give IC50 for `COc1ccc(C2=[N+](C)CCn3cccc32)c(OC)c1`
[out] > 50 µM (inactive)

###

System: Large T antigen (Simian virus 40, UniProt P03070);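 also: Confirmatory-stage PubChem screen for compounds that inhibit SV40 T antigen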
Sequence (P03070 whole entry): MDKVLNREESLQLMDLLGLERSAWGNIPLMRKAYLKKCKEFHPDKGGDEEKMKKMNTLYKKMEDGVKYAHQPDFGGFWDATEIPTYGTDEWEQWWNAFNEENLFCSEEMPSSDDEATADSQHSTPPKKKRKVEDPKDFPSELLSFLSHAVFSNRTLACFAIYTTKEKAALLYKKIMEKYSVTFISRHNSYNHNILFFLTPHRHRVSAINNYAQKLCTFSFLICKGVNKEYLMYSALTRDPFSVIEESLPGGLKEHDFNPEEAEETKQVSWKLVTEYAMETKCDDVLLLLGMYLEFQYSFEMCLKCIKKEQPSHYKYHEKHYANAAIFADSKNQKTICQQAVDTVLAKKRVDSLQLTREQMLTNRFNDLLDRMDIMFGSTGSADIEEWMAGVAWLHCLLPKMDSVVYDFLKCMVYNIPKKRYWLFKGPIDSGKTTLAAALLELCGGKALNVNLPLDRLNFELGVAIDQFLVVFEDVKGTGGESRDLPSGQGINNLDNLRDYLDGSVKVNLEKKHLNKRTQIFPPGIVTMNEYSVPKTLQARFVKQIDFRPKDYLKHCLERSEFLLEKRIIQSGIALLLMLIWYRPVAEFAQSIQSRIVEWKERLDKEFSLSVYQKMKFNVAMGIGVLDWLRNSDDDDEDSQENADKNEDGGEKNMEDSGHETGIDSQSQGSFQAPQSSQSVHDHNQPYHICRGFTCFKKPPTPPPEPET
Assay type: functional, Betapolyomavirus macacae
Active and inactive are the calls of the source.
Attribute Measured: IC50

Check out these entries, answers already filled in.
Cc1c(NC(=O)COC(=O)COc2ccc(Nc3ccccc3)cc2)c(=O)n(-c2ccccc2)n1C = 35.3 µM (active)
CCOc1cc(/C=C2\NC(=S)N(c3c(C)n(C)n(-c4ccccc4)c3=O)C2=O)ccc1O = 5.37 µM (active)
CCN(CC)c1ccc(NC(=O)c2cccc(C)c2OC)c(C)c1 = 32 µM (active)
O=C(O)c1cc(S(=O)(=O)Nc2ccc3oc(=O)sc3c2)ccc1O = 33.3 µM (active)
COc1cc(/C=N/NC(=O)c2ccccc2O)ccc1OC(=O)CC1SC(=O)NC1=O (stereo unspecified) = 35.1 µM (active)
Cc1ncc(CO)c(/C=N/NC(=O)c2cc(O)c(O)c(O)c2)c1O = 3.72 µM (active)
CC1OC(OCC2OC(Oc3c(-c4ccc(O)cc4)oc4cc(O)cc(O)c4c3=O)C(O)C(O)C2O)C(O)C(O)C1O (stereo unspecified) = 17.3 µM (active)
O=[N+]([O-])c1ccc(N2CCN(c3ccc(O)cc3)CC2)cn1 = 26.7 µM (active)

Answer for every listed entry: what is its IC50? The entries follow.
1. CCOc1c(Br)cc(CNc2ccc(N3CCOCC3)cc2)cc1OC
2. Oc1ccc(N2CCN(C(c3ccncc3)c3nnnn3C3CCCC3)CC2)cc1 (stereo unspecified)
3. Cc1ccc(CNc2ccc(N3CCOCC3)cc2)cc1

[out]
["8.16 µM (active)", "5.61 µM (active)", "5.62 µM (active)"]

###

System: UniProtKB Q9QUQ5
Sequence (Q9QUQ5 whole entry): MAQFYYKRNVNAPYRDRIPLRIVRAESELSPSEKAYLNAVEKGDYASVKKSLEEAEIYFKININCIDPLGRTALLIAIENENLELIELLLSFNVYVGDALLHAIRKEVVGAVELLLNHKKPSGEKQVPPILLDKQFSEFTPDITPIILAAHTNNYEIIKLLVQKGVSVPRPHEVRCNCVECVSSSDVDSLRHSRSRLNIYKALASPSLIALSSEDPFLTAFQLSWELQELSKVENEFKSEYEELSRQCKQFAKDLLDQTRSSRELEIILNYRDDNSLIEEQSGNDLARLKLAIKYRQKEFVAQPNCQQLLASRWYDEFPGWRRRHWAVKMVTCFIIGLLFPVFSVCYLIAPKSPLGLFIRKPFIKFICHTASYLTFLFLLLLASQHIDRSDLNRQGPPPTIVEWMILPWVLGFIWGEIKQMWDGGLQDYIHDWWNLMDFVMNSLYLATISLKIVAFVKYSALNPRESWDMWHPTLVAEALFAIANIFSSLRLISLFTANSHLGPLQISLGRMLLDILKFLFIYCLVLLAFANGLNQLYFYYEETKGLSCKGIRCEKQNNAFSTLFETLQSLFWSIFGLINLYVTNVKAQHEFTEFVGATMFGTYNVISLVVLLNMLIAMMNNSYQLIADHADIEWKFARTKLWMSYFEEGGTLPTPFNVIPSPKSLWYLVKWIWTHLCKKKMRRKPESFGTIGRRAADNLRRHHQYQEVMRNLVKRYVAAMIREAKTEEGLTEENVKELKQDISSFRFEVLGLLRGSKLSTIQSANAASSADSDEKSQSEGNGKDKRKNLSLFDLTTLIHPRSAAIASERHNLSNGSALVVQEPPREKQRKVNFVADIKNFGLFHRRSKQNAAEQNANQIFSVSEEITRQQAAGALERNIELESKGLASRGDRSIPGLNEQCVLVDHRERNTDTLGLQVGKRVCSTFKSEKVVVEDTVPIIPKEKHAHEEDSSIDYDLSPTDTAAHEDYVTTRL
Experimental Details: mouse TRPC4 channel activators, dose response, cell-based, HEK293 TRPC4/mu-opioid, Fluo-4 calcium (AID 434937)
Format: functional
Activity calls are given as the source filed them.
Exercise: state measured EC50 for each of the compounds provided.

Check out these entries, answers already filled in.
COc1ccc(CNCc2cn(-c3cccc(F)c3)nc2-c2ccc(C)o2)cc1 = 5960 nM (active)
O=C(NCc1ccccc1)C1=C[C@@H](C2CCCCC2)C[C@@H](OCc2ccc(CO)cc2)O1 = 2370 nM (active)
COc1ccc(C(CCNCc2ccc(N(C)C)cc2)c2ccccc2)cc1 (configuration not stated) = 5960 nM (active)
CCCc1c(O)nc(SCCN(CCC)CCC)nc1O = 2660 nM (active)
COC(=O)c1ccc(C(S)=NCC2(N(C)C)CCCCC2)cc1 = 5310 nM (active)

Answer for every listed entry: what is its EC50? The entries follow.
1. CCN1CCN(c2ccc(S(=O)(=O)N3CCCCC3)cc2NC(=O)CC(C)c2ccccc2)CC1 (configuration not stated)
2. CCOc1ccccc1N(CC(=O)N1CCOCC1)S(=O)(=O)c1ccc(SC)cc1

[out]
["1060 nM (active)", "2660 nM (active)"]

###

System: Sentrin-specific protease 7 (Homo sapiens)
Sequence (Q9BQF6 whole entry): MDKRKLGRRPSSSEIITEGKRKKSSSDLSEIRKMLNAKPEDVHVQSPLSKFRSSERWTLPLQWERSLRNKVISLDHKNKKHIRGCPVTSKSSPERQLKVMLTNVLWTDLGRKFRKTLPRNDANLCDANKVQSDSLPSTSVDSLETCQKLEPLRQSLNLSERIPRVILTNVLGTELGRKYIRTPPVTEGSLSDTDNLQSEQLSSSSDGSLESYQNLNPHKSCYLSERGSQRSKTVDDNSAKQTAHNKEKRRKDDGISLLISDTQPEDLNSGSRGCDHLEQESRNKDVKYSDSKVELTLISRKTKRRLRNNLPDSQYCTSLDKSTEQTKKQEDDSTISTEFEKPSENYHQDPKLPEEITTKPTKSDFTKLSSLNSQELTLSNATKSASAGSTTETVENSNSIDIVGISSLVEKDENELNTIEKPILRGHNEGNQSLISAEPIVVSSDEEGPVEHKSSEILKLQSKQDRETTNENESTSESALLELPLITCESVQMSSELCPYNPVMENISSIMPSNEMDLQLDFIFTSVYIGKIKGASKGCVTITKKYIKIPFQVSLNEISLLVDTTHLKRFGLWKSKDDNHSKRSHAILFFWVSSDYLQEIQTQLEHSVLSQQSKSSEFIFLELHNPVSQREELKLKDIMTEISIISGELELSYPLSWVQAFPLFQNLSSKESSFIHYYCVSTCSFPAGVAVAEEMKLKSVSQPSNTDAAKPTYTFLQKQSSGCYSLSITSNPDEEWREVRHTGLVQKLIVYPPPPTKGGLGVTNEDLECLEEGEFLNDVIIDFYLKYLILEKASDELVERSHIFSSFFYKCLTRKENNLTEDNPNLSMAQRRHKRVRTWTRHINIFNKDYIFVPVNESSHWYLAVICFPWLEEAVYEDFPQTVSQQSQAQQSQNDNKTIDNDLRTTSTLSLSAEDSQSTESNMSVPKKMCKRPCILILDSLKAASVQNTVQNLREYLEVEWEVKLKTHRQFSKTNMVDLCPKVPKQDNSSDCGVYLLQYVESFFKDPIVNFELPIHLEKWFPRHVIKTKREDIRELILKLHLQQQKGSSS
Experimental Details: SENP7 protease inhibitors, SAR follow-up, biochemical, luminescence (AID 504497)
Type: functional
Active and inactive are the calls of the source.
Returns: one label drawn from 1 = active, 0 = inactive

[in] For this compound, state the assay outcome: `CCCCNc1cc(NC(C)=O)cc2cc(OC)c(OC)cc12`
[out] 0

[in] For this compound, state the assay outcome: `O=C(Nc1nc2ccc(Cl)cc2s1)c1cccs1`
[out] 1

[in] For this compound, state the assay outcome: `O=C(Nc1nc2ccccc2s1)c1ccsc1`
[out] 1

[in] For this compound, state the assay outcome: `CC(C)(C)c1ccc2c(c1)C(=O)c1ccccc1C2=O`
[out] 1

###

Exercise: state measured EC50 for each of the molecules provided.
System: Trace amine-associated receptor 1 (Homo sapiens)
Sequence (Q96RJ0 whole entry): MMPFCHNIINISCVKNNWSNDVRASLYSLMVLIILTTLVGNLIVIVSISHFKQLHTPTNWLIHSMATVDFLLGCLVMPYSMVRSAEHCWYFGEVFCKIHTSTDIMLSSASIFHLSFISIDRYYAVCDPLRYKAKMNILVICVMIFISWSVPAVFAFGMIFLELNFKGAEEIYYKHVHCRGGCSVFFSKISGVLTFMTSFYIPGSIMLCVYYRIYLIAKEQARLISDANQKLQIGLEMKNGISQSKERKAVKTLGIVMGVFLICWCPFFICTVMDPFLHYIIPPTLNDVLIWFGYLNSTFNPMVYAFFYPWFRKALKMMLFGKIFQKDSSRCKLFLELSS
Experimental Details: Fluorescence-based cell-based high throughput dose response assay to identify agonists of the human trace amine associated receptor 1 (TAAR1).
Assay type: functional
Counter-ions that a name gives are not always drawn. Calls of active or inactive are those of the source.

O=C(NCCc1ccccc1)c1ccc([N+](=O)[O-])cc1 = 2320 nM (active)

Answer for every listed entry: what is its EC50? The entries follow.
1. Cc1ccc(-c2nc(CS(=O)(=O)CC(=O)N3CCc4ccccc4C3)c(C)o2)cc1
2. c1ccc(CN(CC2=NCCN2)c2ccccc2)cc1 [ANTAZOLINE HYDROCHLORIDE]
3. COc1cc(C(c2nnnn2C2CCCC2)N2CCc3ccccc3C2)ccc1O (centres undefined)

[out]
["2230 nM (active)", "4310 nM (active)", "496 nM (active)"]

###

System: Luciferin 4-monooxygenase (Photinus pyralis, UniProt P08659)
Sequence (P08659 whole entry): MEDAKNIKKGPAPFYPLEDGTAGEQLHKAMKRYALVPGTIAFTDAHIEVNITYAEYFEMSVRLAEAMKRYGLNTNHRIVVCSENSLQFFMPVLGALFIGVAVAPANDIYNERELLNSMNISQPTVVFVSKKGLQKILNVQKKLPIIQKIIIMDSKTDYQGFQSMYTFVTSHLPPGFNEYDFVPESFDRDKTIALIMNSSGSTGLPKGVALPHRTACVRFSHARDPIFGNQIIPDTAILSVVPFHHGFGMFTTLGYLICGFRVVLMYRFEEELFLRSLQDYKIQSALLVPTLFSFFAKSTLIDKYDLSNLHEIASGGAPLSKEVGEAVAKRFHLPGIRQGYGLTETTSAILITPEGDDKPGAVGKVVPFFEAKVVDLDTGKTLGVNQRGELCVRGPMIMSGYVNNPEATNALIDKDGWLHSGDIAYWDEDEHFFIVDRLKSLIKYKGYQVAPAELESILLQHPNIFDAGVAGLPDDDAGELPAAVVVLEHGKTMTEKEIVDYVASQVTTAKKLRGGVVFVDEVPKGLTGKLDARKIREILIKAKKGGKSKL
Experimental Details: Counter Screen for Luciferase-based Assay Positives. [Related pubchem assays: 620, 618, 411 ]
The source made the active and inactive calls.
Attribute Measured: EC50

O=C(CCCOc1ccccc1)N1CCCCC1 = < 200 nM (active)
CCCc1cc(C(=O)Nc2nccs2)cs1 = < 200 nM (active)

Answer for every listed entry: what is its EC50? The entries follow.
1. COc1ccc(O)c(C(=O)CC(=O)c2ccc(F)cc2)c1
2. O=C(CSc1nnc(-c2csc3c2CCCC3)o1)Nc1ccccc1

[out]
1: 350 nM (active); 2: 4340 nM (active)

###

System: Cytochrome P450 1A2 (Homo sapiens, UniProt P05177);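 also: PubChem cytochrome P450 panel assay, CYP1A2 panel member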
Sequence (P05177 whole entry): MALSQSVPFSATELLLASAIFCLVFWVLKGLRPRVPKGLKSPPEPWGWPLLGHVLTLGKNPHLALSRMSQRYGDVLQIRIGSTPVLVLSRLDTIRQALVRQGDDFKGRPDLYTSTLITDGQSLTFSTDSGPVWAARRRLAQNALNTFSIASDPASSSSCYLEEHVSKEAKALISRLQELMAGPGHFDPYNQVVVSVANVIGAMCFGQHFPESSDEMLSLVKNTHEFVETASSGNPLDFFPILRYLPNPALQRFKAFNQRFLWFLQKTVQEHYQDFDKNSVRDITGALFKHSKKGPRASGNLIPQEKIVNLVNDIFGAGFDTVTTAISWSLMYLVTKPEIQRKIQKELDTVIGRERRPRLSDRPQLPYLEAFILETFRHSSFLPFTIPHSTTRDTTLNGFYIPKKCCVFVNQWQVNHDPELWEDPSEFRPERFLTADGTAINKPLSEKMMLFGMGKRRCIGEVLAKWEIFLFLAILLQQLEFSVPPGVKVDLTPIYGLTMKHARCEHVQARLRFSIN
Attribute Measured: AC50

Check out these entries, answers already filled in.
O=C(CSc1c[nH]c2ccccc12)N1CCOCC1 = 17.8 µM (inconclusive)
CCOc1c2ccc(C(=O)NCc3ccc(OC(F)(F)F)cc3)cc2nn1CC = 14.1 µM (inconclusive)
O=C(CSc1nnnn1-c1ccccc1)NCc1cccs1 = 31.6 µM (inconclusive)
O=C(OCCN1CCOCC1)C1(c2ccccc2)CCCCC1 = 31.6 µM (inconclusive)
Nc1nnnn1CCO = 6.31 µM (inconclusive)

Answer for every listed entry: what is its AC50? The entries follow.
1. COc1cccc(Nc2ncc3nc(-c4cn(C)c5ccccc45)c(=O)n(CCC#N)c3n2)c1
2. O=C(Nc1ccccc1)N1CCC2(CC1)CCN(C(=O)c1ccco1)CC2
3. CC(C)NC(=O)COC(=O)c1cc(O)nc2ccccc12
4. O=C1COc2ccc(OCc3ccc(F)cc3)cc21
5. COCCCn1c(N)c(C(=O)Nc2sc3c(c2C(=O)OC)CCCC3)c2nc3ccccc3nc21

[out]
1: 20 µM (inconclusive); 2: 10 µM (inconclusive); 3: 7.08 µM (inconclusive); 4: 7.08 µM (inconclusive); 5: 10 µM (inconclusive)
